The reported measurements were obtained from ChEMBL document CHEMBL1158565.

- TGT: Voltage-dependent L-type calcium channel subunit alpha-1C (Oryctolagus cuniculus, UniProt P15381)
- Sequence (P15381 whole entry): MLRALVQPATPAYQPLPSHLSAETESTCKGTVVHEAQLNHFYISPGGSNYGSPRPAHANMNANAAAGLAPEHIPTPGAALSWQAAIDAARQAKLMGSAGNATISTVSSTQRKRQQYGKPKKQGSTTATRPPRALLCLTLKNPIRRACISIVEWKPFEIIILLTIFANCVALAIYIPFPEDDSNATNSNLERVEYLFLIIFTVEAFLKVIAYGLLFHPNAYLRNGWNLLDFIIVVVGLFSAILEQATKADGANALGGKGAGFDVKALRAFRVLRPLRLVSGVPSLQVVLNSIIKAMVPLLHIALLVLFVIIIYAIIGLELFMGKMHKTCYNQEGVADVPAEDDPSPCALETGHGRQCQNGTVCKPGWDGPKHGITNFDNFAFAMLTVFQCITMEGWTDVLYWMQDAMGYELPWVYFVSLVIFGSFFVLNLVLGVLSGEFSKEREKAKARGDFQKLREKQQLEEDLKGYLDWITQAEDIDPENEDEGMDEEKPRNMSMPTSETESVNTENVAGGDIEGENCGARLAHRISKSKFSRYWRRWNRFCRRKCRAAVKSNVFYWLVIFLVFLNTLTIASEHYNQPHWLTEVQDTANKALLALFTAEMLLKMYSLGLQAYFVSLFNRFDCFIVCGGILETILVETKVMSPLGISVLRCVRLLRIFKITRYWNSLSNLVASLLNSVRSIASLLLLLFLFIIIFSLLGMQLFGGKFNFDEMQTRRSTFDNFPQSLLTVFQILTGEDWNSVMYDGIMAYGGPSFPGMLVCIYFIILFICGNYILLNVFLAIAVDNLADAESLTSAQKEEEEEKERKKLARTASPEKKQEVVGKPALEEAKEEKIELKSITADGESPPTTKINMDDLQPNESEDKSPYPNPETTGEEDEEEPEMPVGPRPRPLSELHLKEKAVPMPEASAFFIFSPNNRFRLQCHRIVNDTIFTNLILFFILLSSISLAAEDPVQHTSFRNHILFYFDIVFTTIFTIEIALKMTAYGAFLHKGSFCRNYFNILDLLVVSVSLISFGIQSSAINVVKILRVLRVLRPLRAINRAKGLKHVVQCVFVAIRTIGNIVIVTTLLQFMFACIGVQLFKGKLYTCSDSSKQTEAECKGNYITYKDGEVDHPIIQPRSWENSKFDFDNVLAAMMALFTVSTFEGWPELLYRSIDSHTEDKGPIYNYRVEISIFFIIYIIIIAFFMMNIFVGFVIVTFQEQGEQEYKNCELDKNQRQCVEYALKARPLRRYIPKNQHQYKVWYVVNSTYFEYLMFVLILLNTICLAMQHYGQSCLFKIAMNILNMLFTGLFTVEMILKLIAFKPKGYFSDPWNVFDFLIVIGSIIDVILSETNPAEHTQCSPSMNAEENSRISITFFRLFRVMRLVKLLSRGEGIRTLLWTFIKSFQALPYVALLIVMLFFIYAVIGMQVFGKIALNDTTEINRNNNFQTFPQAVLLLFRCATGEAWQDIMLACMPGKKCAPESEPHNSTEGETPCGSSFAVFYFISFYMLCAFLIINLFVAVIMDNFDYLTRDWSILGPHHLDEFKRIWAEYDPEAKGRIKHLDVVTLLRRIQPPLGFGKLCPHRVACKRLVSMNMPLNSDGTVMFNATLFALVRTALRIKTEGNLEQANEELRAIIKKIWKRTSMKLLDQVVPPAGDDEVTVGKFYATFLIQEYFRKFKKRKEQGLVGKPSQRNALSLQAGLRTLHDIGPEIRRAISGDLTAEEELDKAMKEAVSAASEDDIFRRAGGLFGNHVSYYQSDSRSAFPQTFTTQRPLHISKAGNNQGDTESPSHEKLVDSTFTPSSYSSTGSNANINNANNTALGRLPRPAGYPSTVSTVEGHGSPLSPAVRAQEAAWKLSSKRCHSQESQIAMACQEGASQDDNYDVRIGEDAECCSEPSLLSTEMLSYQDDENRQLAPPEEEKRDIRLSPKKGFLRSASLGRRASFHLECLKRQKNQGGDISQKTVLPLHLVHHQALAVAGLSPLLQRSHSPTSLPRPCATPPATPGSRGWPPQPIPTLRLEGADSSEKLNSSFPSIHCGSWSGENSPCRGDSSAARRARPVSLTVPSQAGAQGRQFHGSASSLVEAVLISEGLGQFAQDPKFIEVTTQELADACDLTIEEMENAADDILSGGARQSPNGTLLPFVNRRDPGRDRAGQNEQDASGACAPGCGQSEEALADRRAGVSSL
- ASSAY_EXPLANATION: Antagonist activity at rabbit Cav1.2 expressed in HEK293 cells assessed as inhibition of voltage pulse-induced calcium current by FLIPR calcium 4 assay
MEASUREMENT_TYPE: log10(IC50) (log10 of the value in nM)
Please be aware that the numbers have been log10-transformed from IC50 in nM.

CCOC(=O)C1=C(C)NC(COC)=C(C(=O)OC)C1c1ccccc1[N+](=O)[O-] (configuration not stated); 3.25
CCOC(=O)C1=C(C)NC(C)=C(C(=O)OCC)C1(C)c1ccccc1; 2.80
CCOC(=O)C1=C(C)NC(C(OCC)OCC)=C(C(=O)OCC)C1c1cccc([N+](=O)[O-])c1 (configuration not stated); 2.66
COC(=O)C1=C(C)NC(C)=C(C(=O)OCCOc2ccccc2Cl)C1c1cccc([N+](=O)[O-])c1 (configuration not stated); 1.28
COC(=O)C1=C(C)NC(C)=C(C(=O)OCC23CC4CC(C)(CC(C)(C4)C2)C3)C1c1cccc([N+](=O)[O-])c1 (configuration not stated); 2.84

Entry under test: COC(=O)C1=C(C)NC(C)=C(C(=O)OCCOCc2ccccc2)C1c1cccc([N+](=O)[O-])c1 (configuration not stated) . Its log10(IC50) was 0.95

Entry under test: COC(=O)C1=C(C)NC(C)=C(C(=O)OCc2ccc3c(c2)OCO3)C1c1cccc([N+](=O)[O-])c1 (configuration not stated) . Its log10(IC50) was 1.11

Entry under test: `CCOC(=O)C1=C(C)NC(C)=C(C(=O)OCCC#N)[C@@H]1c1cccc([N+](=O)[O-])c1` . Its log10(IC50) was 1.70

Entry under test: COC(=O)C1=C(C)NC(C)=C(C(=O)OCc2ccc(F)c(F)c2)C1c1cccc([N+](=O)[O-])c1 (configuration not stated) . Its log10(IC50) was 0.85
